system-under-test: Cannabinoid receptor 2 (Homo sapiens)
assay-method-text: Displacement of [3H]-CP55940 from human recombinant CB2 receptor expressed in CHO-K1 cell membrane measured after 3 hrs by scintillation spectrometry
Assay type: cell membranes
protocol-conditions: read-out: Ki
Sorting guide: entries reporting Ki beneath 80 nM go in the y pile, the rest go in the n pile.

{"mol": "CCCCC1(c2cc(O)c3cc(CC)c(=O)oc3c2)CCCC1", "group-label": "y"}
{"mol": "CCCCC(C)(C)c1cc(OC)c2cc(Cc3ccccc3OC)c(=O)oc2c1", "group-label": "n"}
{"mol": "CCCCC1(c2cc(O)c3cc(CCC)c(=O)oc3c2)CCCC1", "group-label": "y"}
{"mol": "CCCCCc1cc(OC)c2cc(Cc3cccnc3)c(=O)oc2c1", "group-label": "y"}
{"mol": "CCCCCc1cc(OC)c2cc(Cc3ccccn3)c(=O)oc2c1", "group-label": "n"}

-- ask Consider CCCCCCC(C)(C)c1cc(O)c2cc(Cc3ccccc3C)c(=O)oc2c1 . Does its Ki lie strictly below 80 nM?
-- reply n

###

system-under-test: Cannabinoid receptor 1 (Homo sapiens)
assay-method-text: Displacement of [3H]-CP55940 from human recombinant CB1 receptor expressed in CHO-K1 cell membrane at 1 uM measured after 3 hrs by scintillation spectrometry
Assay type: cell membranes
Could you label it 1 if measured inhibition is 20% or higher, and -1 otherwise?

Below, 3 compounds whose answers are already recorded.
{"mol": "CCCCC1(c2cc(O)c3cc(Cc4ccccn4)c(=O)oc3c2)CCCCC1", "system-under-test": "Cannabinoid receptor 1 (Homo sapiens)", "group-label": -1}
{"mol": "CCCCC1(c2cc(O)c3cc(CC)c(=O)oc3c2)CCCCC1", "system-under-test": "Cannabinoid receptor 1 (Homo sapiens)", "group-label": 1}
{"mol": "CCCCC1(c2cc(OC)c3cc(CC)c(=O)oc3c2)CCCC1", "system-under-test": "Cannabinoid receptor 1 (Homo sapiens)", "group-label": 1}

-- ask Is inhibition for CCCCC1(c2cc(OC)c3cc(C)c(=O)oc3c2)CCCCC1 at or above 20%?
-- reply -1

-- ask Is it the case that CCCCC1(c2cc(OC)c3cc(-c4ccccc4)c(=O)oc3c2)CCCC1 has inhibition reaching or exceeding 20%?
-- reply 1

-- ask Please indicate if the recorded inhibition for CCCCC1(c2cc(OC)c3cc(Cc4ccncc4)c(=O)oc3c2)CCCCC1 meets or exceeds 20%.
-- reply 1

-- ask Exam item: decide whether the reported inhibition for CCCCC(C)(C)c1cc(O)c2cc(Cc3ccccc3)c(=O)oc2c1 is at least 20%.
-- reply -1

-- ask Hi team, for CCCCC1(c2cc(OC)c3cc(Cc4ccccn4)c(=O)oc3c2)CCCC1 , is the recorded inhibition at or above 20%?
-- reply 1

-- ask Does CCCCC1(c2cc(O)c3cc(Cc4ccccn4)c(=O)oc3c2)CCCC1 have a reported inhibition of at least 20%?
-- reply 1

-- ask Answer whether inhibition of CCCCC1(c2cc(O)c3cc(CC)c(=O)oc3c2)CCCC1 is greater than or equal to 20%.
-- reply 1

-- ask Answer whether inhibition of CCCCC1(c2cc(OC)c3cc(C)c(=O)oc3c2)CCCC1 is greater than or equal to 20%.
-- reply -1

-- ask Form field: inhibition at least 20%? Entry: CCCCC1(c2cc(O)c3cc(C)c(=O)oc3c2)CCCCC1
-- reply -1

-- ask Reported inhibition reaches at least 20% for CCCCC1(c2cc(OC)c3cc(Cc4ccncc4)c(=O)oc3c2)CCCC1 ?
-- reply 1

###

system-under-test: Cannabinoid receptor 2 (Homo sapiens, UniProt P34972)
Sequence (P34972 whole entry): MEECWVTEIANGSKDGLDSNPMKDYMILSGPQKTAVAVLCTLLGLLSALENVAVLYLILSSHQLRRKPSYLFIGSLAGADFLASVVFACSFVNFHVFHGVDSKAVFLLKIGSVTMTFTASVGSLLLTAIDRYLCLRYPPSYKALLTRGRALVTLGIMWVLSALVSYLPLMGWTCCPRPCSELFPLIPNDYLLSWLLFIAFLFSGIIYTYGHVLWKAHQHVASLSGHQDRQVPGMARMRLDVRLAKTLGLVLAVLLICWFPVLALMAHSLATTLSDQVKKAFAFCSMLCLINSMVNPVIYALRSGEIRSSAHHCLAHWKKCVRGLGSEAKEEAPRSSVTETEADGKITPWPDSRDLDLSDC
assay-method-text: Displacement of [3H]-CP55940 from human recombinant CB2 receptor expressed in CHO-K1 cell membrane measured after 3 hrs by scintillation spectrometry
Format: cell membranes
protocol-conditions: read-out: Ki
pKi: −log10 of the molar value.
Where pKi equals or exceeds 7, the correct label is Satisfied; where it does not, the label is Not satisfied.

{"mol": "CCCCC1(c2cc(O)c3cc(CCC)c(=O)oc3c2)CCCCC1", "group-label": "Satisfied"}

-- ask Is the recorded value of pKi equal to or greater than 7 for this compound? CCCCc1cc2c(O)cc(C3(CCCC)CCCCC3)cc2oc1=O
-- reply Satisfied

-- ask Could you tell me if the measured pKi of CCCCc1cc2c(O)cc(C3(CCCC)CCCC3)cc2oc1=O reaches 7 or more?
-- reply Satisfied

-- ask Answer whether pKi of CCCCC1(c2cc(O)c3cc(Cc4cccnc4)c(=O)oc3c2)CCCC1 is greater than or equal to 7.
-- reply Not satisfied

-- ask Does the compound CCCCC1(c2cc(O)c3cc(CC)c(=O)oc3c2)CCCCC1 have recorded pKi that is 7 or more?
-- reply Satisfied

###

system-under-test: Cannabinoid receptor 1 (Homo sapiens, UniProt P21554)
Sequence (P21554 whole entry): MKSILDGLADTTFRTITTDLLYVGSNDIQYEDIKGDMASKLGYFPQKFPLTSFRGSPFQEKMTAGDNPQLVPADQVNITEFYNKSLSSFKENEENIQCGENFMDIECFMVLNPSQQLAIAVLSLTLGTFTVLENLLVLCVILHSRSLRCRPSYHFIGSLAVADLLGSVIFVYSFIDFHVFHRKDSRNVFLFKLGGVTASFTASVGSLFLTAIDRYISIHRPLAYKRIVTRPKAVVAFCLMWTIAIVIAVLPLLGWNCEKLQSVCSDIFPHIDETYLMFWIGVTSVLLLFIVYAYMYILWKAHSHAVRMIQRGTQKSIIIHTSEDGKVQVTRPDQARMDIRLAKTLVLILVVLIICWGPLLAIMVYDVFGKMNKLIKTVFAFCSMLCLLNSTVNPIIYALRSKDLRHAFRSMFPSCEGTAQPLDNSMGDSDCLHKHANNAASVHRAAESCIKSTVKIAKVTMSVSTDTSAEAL
assay-method-text: Displacement of [3H]-CP55940 from human recombinant CB1 receptor expressed in CHO-K1 cell membrane measured after 3 hrs by scintillation spectrometry
Assay type: cell membranes
protocol-conditions: read-out: Ki
quantity-measured: Ki
Be sure to follow the number with its unit.

Sample answers from the record:
{"mol": "CCCCC1(c2cc(O)c3cc(CCC)c(=O)oc3c2)CCCCC1", "value-reported": "159 nM"}
{"mol": "CCCCC(C)(C)c1cc(OC)c2cc(Cc3ccccc3)c(=O)oc2c1", "value-reported": "486 nM"}
{"mol": "CCCCC(C)(C)c1cc(OC)c2cc(Cc3ccccc3C)c(=O)oc2c1", "value-reported": "217 nM"}

Each compound below has a recorded value; state its Ki.
1. CCCCCc1cc(OC)c2cc(Cc3ccccn3)c(=O)oc2c1
2. CCCCCc1cc(OC)c2cc(Cc3cccnc3)c(=O)oc2c1
3. CCCCC(C)(C)c1cc(OC)c2cc(Cc3ccccc3OC)c(=O)oc2c1

-- reply
70.3 nM
171 nM
196 nM

###

system-under-test: Cannabinoid receptor 1 (Homo sapiens, UniProt P21554)
assay-method-text: Displacement of [3H]-CP55940 from human recombinant CB1 receptor expressed in CHO-K1 cell membrane measured after 3 hrs by scintillation spectrometry
Format: cell membranes
protocol-conditions: read-out: pKi (converted)
Assignment: determine reported Ki for the given compounds.

Worked examples follow.
{"mol": "CCCCC1(c2cc(O)c3cc(CC)c(=O)oc3c2)CCCCC1", "system-under-test": "Cannabinoid receptor 1 (Homo sapiens, UniProt P21554)", "quantity-measured": "Ki", "value-reported": "> 1000 nM"}
{"mol": "CCCCC1(c2cc(O)c3cc(Cc4ccccn4)c(=O)oc3c2)CCCC1", "system-under-test": "Cannabinoid receptor 1 (Homo sapiens, UniProt P21554)", "quantity-measured": "Ki", "value-reported": "> 1000 nM"}

Hi team, please reply with Ki for each item in this list.
1. CCCCC1(c2cc(OC)c3cc(CC)c(=O)oc3c2)CCCCC1
2. CCCCC1(c2cc(OC)c3cc(-c4ccc(C(F)(F)F)cc4)c(=O)oc3c2)CCCC1
3. CCCCc1cc2c(O)cc(C3(CCCC)CCCC3)cc2oc1=O

-- reply
> 1000 nM
> 1000 nM
1000 nM

###

system-under-test: Cannabinoid receptor 2 (Homo sapiens)
assay-method-text: Displacement of [3H]-CP55940 from human recombinant CB2 receptor expressed in CHO-K1 cell membrane at 1 uM measured after 3 hrs by scintillation spectrometry
Format: cell membranes
Please go through the items and note down their inhibition.
Answers are plain numbers, in %.

Use the examples below as a reference point.
{"mol": "CCCCC(C)(C)c1cc(OC)c2cc(Cc3ccccc3C)c(=O)oc2c1", "result-unit": "%", "value-reported": 32}
{"mol": "CCCCC1(c2cc(OC)c3cc(Cc4cccnc4)c(=O)oc3c2)CCCCC1", "result-unit": "%", "value-reported": 11}

Provide inhibition for all items below, preserving their order.
1. CCCCC1(c2cc(O)c3cc(-c4ccccc4O)c(=O)oc3c2)CCCC1
2. CCCCC(C)(C)c1cc(O)c2cc(Cc3ccccc3)c(=O)oc2c1
3. CCCCc1cc2c(OC)cc(C3(CCCC)CCCCC3)cc2oc1=O
4. CCCCC(C)(C)c1cc(OC)c2cc(Cc3ccccc3)c(=O)oc2c1
5. CCCCC1(c2cc(OC)c3cc(CCC)c(=O)oc3c2)CCCCC1
6. CCCCC1(c2cc(OC)c3cc(CC)c(=O)oc3c2)CCCCC1

-- reply
-2
24
2
39
-4
-1

###

Please go through the items and note down their pEC50.
system-under-test: Cannabinoid receptor 1 (Homo sapiens, UniProt P21554)
assay-method-text: Agonist activity at human recombinant CB1 receptor expressed in CHO-K1 cell membrane assessed as increase in GTPgammaS binding pretreated for 30 mins followed by [35S]GTPgammaS addition for 90 mins by [35S]GTP-gammaS binding assay
Give bare numbers, as −log10 of the molar value.

{"mol": "CCCCCc1cc(OC)c2cc(Cc3ccccn3)c(=O)oc2c1", "pEC50": 6.00}

With those in mind, consider the next molecule.
-- ask Give recorded pEC50. CCCCC1(c2cc(O)c3cc(CCC)c(=O)oc3c2)CCCCC1
-- reply 5.95
